# SUBJECT_OF_TEST: human GIP receptor (hGIPR) (Homo sapiens)
# Construct: expressed in transfected cells
# Sequence (P48546 22-466): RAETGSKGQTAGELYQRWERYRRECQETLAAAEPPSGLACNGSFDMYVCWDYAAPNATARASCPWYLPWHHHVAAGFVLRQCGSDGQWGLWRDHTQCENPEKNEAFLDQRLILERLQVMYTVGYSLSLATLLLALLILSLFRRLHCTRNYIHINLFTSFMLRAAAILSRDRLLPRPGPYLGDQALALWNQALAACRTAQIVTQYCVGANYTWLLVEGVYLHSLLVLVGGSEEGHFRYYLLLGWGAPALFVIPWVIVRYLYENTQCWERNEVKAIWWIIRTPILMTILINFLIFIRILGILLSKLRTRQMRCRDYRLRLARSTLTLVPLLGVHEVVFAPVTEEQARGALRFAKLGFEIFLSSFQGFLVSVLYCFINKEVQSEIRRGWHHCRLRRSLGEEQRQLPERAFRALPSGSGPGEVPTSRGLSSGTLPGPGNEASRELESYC
# MEASUREMENT_DESCRIPTION: GIP receptor assay, method A (CRE-luciferase reporter, BHK cells)
# Assay type: cell-based
# RUN_PARAMETERS: method A, absence of HSA; read-out: hGIPR Potency, no HSA, EC50
# Experimental: To assess how the activation of the receptors is potentially influenced by the presence of human serum albumin (HSA), the in vitro assays were performed in the absence of HSA and presence of 1% (w/v) HSA. Unless stated otherwise the reference to the “GIP receptor assay as described in Example 4” throughout the specification shall refer to the described herein assay procedure method A (hGIPR assay) in the absence of HSA. […]
Numbered stars: 1 amine (or outer) side, 2 acyl side, 3 side chain; on linkers, the order of the positions; unused ones are H or OH. Square brackets hold non-standard residues; d marks the D form. Side chains are listed from the residue outwards. * marks the point of attachment. C20 diacid = O=C(O)CCCCCCCCCCCCCCCCCCC(=O)*; C18 diacid = O=C(O)CCCCCCCCCCCCCCCCC(=O)*; γGlu = O=C(O)[C@H](CCC(=O)[*:2])N[*:1]; AEEA = NCCOCCOCC(=O)O; Aib = CC(C)(N)C(=O)O
# reported EC50; entries follow
Entry format: amount then unit.

Example entries begin here.
Please fill in: EC50 reported for Y[Aib]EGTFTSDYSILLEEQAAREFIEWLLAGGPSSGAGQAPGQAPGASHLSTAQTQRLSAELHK([AEEA-AEEA-γGlu-C18 diacid])LATLPRTETGSGSP-NH2 [compound 52] = 1.83 pM

Please fill in: EC50 reported for H[Aib]HGTFTSDYSILLEEQAAREFIEWLLAGGPSSGEASHLSTAQTQRLSAK([AEEA-AEEA-γGlu-C18 diacid])LHRLATLPRTETGSGSP-NH2 [Compound 82] = 3.7 pM

Moving on to the next substance.
Please fill in: EC50 reported for Y[Aib]EGTFTSDYSILLEEQAAREFIEWLLAGGPSSGALQAPGQAPLASHLSTAQTQRLSAELHK([AEEA-AEEA-γGlu-C20 diacid])LATLPRTETGSGSP-NH2 [Compound 99] = 2.09 pM

The measurements presented in this section are drawn from patent US20260174875A1.
